- study system: human μ opiate receptor (Homo sapiens)
- Sequence (P35372 whole entry): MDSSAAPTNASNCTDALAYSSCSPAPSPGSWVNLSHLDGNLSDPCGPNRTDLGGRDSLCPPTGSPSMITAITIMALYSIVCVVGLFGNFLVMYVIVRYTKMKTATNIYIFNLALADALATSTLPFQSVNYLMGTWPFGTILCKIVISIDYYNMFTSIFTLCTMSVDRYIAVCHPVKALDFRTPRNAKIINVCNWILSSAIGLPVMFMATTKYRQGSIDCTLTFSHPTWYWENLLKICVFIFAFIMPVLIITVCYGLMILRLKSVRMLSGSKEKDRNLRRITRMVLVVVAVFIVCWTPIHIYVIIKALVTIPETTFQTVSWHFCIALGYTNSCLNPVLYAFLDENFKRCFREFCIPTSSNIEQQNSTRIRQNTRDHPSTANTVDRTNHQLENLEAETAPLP
- experiment summary: human μ opiate receptor binding assay with [3H]-naloxone, CHO-K1 membrane preparation
- Experimental: b) Method for Determining Affinity for the Human μ Opiate Receptor Receptor affinity for the human μ opiate receptor was determined in a homogeneous batch in microtitre plates. […] Once the ninety minute incubation time had elapsed, the microtitre plates were centrifuged off for 20 minutes at 1000 g and the radioactivity measured in a β-Counter (Microbeta-Trilux, from PerkinElmer Wallac, Freiburg, Germany). […]
readout label: Ki

query: Data request, read-out Ki, for CN(C)C(c1ccc(F)cc1)c1ccc(C(=O)NC2CCCCC2)n1C.Cl (centres unmarked) [Example 1, hydrochloride]
result: 0.16 µM

query: Quick one: Ki for CN(C)C(c1ccc(Br)cc1)c1ccc(C(=O)NCCc2ccccc2)n1C.Cl (centres unmarked) [Example 7, hydrochloride] ?
result: 1 µM

====

Recorded 5-HT uptake inhibition [%] conc. 10 by entry
- study system: 5-HT uptake (Rattus norvegicus, UniProt P31652)
- Construct: Synaptosomes from rat brain regions (the “P2” fraction was used) were freshly isolated; from tissue; host or cells: rat brain synaptosomes (P2 fraction), medulla and pons
- Sequence (P31652 whole entry): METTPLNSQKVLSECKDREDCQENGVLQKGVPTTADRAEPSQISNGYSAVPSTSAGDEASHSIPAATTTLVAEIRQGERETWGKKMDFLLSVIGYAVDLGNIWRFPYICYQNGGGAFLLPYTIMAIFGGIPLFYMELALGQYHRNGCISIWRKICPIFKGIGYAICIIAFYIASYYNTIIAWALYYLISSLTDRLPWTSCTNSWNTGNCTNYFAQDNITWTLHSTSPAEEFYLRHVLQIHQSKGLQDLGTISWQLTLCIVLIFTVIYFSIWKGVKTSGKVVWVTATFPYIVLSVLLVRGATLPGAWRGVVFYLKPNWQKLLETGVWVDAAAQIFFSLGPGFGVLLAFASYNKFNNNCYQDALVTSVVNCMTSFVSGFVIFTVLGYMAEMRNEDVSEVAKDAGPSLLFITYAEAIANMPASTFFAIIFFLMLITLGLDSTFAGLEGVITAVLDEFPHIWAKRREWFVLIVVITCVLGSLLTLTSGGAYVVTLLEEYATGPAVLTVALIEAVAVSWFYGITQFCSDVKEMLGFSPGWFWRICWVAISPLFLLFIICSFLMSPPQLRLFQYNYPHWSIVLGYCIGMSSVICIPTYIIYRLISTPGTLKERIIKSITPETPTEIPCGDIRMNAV
- experiment summary: 5-HT uptake inhibition in rat brain synaptosomes (medulla and pons)
- Format: biochemical
- Design: concentration or dose not given beside the values
- applied conditions: conc. 10 (unit not given), [3H]-5-HT

CN(C)C(c1ccc(Br)cc1)c1ccc(C(=O)N2CCOCC2)n1C.Cl (centres unmarked) = 79%
CN(C)C(c1ccccc1)c1ccc(C(=O)N2CCCC2)n1C.Cl (centres unmarked) = 54%
CCCCNC(=O)c1ccc(C(c2ccc(Br)cc2)N(C)C)n1C.Cl (centres unmarked) = 57%
CN(C)C(c1ccc(Br)cc1)c1ccc(C(=O)N2CCCC2)n1C.Cl (centres unmarked) = 51%
CN(C)C(c1ccc(Br)cc1)c1ccc(C(=O)NC2CCCCC2)n1C.Cl (centres unmarked) = 72%
CN(C)C(c1ccc(Br)cc1)c1ccc(C(=O)NCCc2ccccc2)n1C.Cl (centres unmarked) = 93%
CCCCNC(=O)c1ccc(C(c2ccc(F)cc2)N(C)C)n1C.Cl (centres unmarked) = 52%

query: // lookup 5-HT uptake inhibition [%] conc. 10 for CN(C)C(c1ccc(F)cc1)c1ccc(C(=O)NC2CCCCC2)n1C.Cl (centres unmarked)
result: 57%

====

- study system: NA transporter (Rattus norvegicus)
- Construct: Synaptosomes from rat brain regions (the “P2” fraction was used) were freshly isolated; from tissue; host or cells: rat brain synaptosomes (P2 fraction), hypothalamus
- Sequence (Q63380 1-617): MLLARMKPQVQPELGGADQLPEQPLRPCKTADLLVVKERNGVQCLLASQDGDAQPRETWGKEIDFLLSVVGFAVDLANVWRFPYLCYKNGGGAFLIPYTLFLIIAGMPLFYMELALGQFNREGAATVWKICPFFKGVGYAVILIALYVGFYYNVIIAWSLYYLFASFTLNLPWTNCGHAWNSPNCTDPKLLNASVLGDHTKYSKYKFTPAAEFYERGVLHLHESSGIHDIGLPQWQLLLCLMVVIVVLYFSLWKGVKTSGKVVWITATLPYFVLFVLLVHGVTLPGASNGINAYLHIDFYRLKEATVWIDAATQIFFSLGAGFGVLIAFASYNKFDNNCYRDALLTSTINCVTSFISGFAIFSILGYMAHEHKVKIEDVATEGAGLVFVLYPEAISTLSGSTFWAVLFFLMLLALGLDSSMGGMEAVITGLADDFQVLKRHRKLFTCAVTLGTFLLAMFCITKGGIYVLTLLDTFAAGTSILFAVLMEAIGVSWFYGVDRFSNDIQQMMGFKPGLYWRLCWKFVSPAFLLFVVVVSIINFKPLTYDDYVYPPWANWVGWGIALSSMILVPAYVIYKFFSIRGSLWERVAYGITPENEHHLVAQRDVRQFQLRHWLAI
- experiment summary: noradrenalin uptake inhibition in rat brain synaptosomes (hypothalamus)
- Type: biochemical
- Set-up: concentration or dose not given beside the values
- applied conditions: conc. 10 (unit not given), [3H]-NA
Assign T to entries whose Noradrenalin uptake inhibition [%] conc. 10 meets or exceeds 80%; assign F to the rest.

CN(C)C(c1ccc(Br)cc1)c1ccc(C(=O)N2CCOCC2)n1C.Cl (stereo not shown) = F

query: Check the entry CN(C)C(c1ccc(Br)cc1)c1ccc(C(=O)NCCc2ccccc2)n1C.Cl (stereo not shown) : does Noradrenalin uptake inhibition [%] conc. 10 equal or exceed 80%?
result: T

query: Identify whether the reported Noradrenalin uptake inhibition [%] conc. 10 of the following molecule is 80% or greater: CN(C)C(c1ccc(Br)cc1)c1ccc(C(=O)NC2CCCCC2)n1C.Cl (stereo not shown)
result: T

query: Check the entry CN(C)C(c1ccccc1)c1ccc(C(=O)NC2CCCCC2)n1C.Cl (stereo not shown) : does Noradrenalin uptake inhibition [%] conc. 10 equal or exceed 80%?
result: F

query: Does the molecule CCCCNC(=O)c1ccc(C(c2ccccc2)N(C)C)n1C.Cl (stereo not shown) have recorded Noradrenalin uptake inhibition [%] conc. 10 that is 80% or more?
result: F

query: Determine whether measured Noradrenalin uptake inhibition [%] conc. 10 meets or exceeds 80% for CN(C)C(c1ccc(F)cc1)c1ccc(C(=O)N2CCCC2)n1C.Cl (stereo not shown)
result: F

query: hey, is Noradrenalin uptake inhibition [%] conc. 10 for this one >= 80%? CCCCNC(=O)c1ccc(C(c2ccc(F)cc2)N(C)C)n1C.Cl (stereo not shown)
result: F

query: Form field: Noradrenalin uptake inhibition [%] conc. 10 at least 80%? Entry: CN(C)C(c1ccc(Br)cc1)c1ccc(C(=O)N2CCCC2)n1C.Cl (stereo not shown)
result: T

query: Can CCCCNC(=O)c1ccc(C(c2ccc(Br)cc2)N(C)C)n1C.Cl (stereo not shown) be said to have Noradrenalin uptake inhibition [%] conc. 10 at or above 80%?
result: T

Value source: patent US7229991B2
